Values compiled from patent US11584756B2.

Target: BRD4-1 (Homo sapiens (Human))
Assay: Bromodomain and Extraterminal Domain (BET) binding assay, BRD4-1
Conditions: histone H4 peptide (1-21) K5/8/12/16Ac-biotin ligand; 20 nM protein, 20 nM ligand
pIC50: −log10 of the molar value.
Catalogue of pIC50 values

# Compound, Lt gt eq, pIC50
data = [
    ("Cc1nnc(-c2cc3c(-c4cc(C(C)(C)O)ccc4Oc4c(C)cc(F)cc4C)cn(C)c(=O)c3s2)[nH]1", "=", 5.83),
    ("Cn1cc(-c2cc(C(C)(C)O)ccc2Oc2ccc(F)cc2F)c2cc(C(=O)N3CCC(F)(F)C3)sc2c1=O", "=", 6.58),
    ("Cc1cc(F)cc(C)c1Oc1ccc(C(C)(C)O)cc1-c1cn(C)c(=O)c2sc(-c3nc4ccccc4o3)cc12", "<", 5.00),
    ("Cn1cc(-c2cc(C(C)(C)O)ccc2Oc2ccc(F)cc2F)c2cc(C(=O)N3CCC(F)(F)CC3)sc2c1=O", "=", 6.20),
    ("CCNC(=O)c1cc2c(-c3cc(C(C)(C)O)ccc3Oc3ccc(F)cc3F)cn(C)c(=O)c2s1", "=", 5.69),
    ("CCN(CC)C(=O)c1cc2c(-c3cc(C(C)(C)O)ccc3Oc3c(C)cc(F)cc3C)cn(C)c(=O)c2s1", "<", 5.00),
    ("Cc1cc(F)cc(C)c1Oc1ccc(C(C)(C)O)cc1-c1cn(C)c(=O)c2sc(C(=O)NCc3ccccc3)cc12", "<", 5.00),
    ("CCS(=O)(=O)Nc1ccc(Oc2ccc(F)cc2F)c(-c2cn(C)c(=O)c3ccsc23)c1", "=", 7.82),
    ("Cn1cc(-c2cc(C(C)(C)O)ccc2Oc2ccc(F)cc2F)c2cc(C(=O)N3CCCCC3)sc2c1=O", "=", 5.83),
    ("Cn1cc(-c2cc(C(C)(C)O)ccc2Oc2ccc(F)cc2F)c2cc(C(=O)NC3CC3)sc2c1=O", "=", 6.22),
    ("Cn1cc(-c2cc(C(C)(C)O)ccc2Oc2ccc(F)cc2F)c2sccc2c1=O", "=", 6.93),
    ("C=C(C)c1ccc(Oc2c(C)cc(F)cc2C)c(-c2cn(C)c(=O)c3sc(C(=O)NCC)cc23)c1", "<", 5.00),
    ("CCNC(=O)c1cc2c(=O)n(C)cc(-c3cc(C(C)(C)O)ccc3Oc3ccc(F)cc3F)c2s1", "=", 7.74),
    ("Cn1cc(-c2cc(C(C)(C)O)ccc2Oc2ccc(F)cc2F)c2cc(C(=O)NC3(C(F)(F)F)CC3)sc2c1=O", "=", 5.93),
    ("CCS(=O)(=O)Nc1ccc(Oc2c(C)cccc2C)c(-c2cn(C)c(=O)c3sc(-c4nnc(C)o4)cc23)c1", "=", 6.71),
]
